# measured on: CYP3A4 (Homo sapiens (Human))
# Sequence (P08684 whole entry): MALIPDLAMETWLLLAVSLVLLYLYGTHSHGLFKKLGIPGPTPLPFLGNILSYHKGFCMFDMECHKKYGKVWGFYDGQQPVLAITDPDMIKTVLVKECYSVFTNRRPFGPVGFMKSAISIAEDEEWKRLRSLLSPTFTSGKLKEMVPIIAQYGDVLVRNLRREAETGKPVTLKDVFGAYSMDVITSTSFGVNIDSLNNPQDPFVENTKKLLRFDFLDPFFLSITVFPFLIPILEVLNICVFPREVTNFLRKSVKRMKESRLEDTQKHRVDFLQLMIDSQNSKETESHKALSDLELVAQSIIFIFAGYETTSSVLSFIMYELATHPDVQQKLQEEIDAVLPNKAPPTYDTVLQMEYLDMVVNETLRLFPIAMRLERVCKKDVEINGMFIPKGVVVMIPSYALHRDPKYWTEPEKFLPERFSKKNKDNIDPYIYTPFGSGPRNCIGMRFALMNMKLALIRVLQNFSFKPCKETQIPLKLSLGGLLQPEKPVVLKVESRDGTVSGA
outcome measure: IC50 (µM)
Numbers only, in µM.

Exercise: For the compound CN1CCN(c2ccc(C(=O)Nc3cc(-c4ccncc4)ccc3N)nc2)CC1 [Compound 028] , give its reported IC50.
Solution: 5.9

---

# protocol details: Rat pharmacokinetics, cassette dosing (IV and PO)
# Type: in vivo
# reported conditions: rat; male SD rats, PO 5 mg/kg, plasma
For each record, write down the corresponding AUC.
Give bare numbers, in ng·h/mL.

Consider the following illustrative entries.
Nc1ccc(-c2ccccc2)cc1NC(=O)c1cc2ccc(N3CCNCC3)cc2cn1: 8180
Nc1ccc(-c2ccncc2)cc1NC(=O)c1cnc(N2CCNCC2)s1: 456
Nc1ccc(-c2ccccc2)cc1NC(=O)c1ccc2nc(N3CCNCC3)ccc2c1: 34600

Okay, next one:
Exercise: For the molecule "Nc1ccc(-c2cccs2)cc1NC(=O)c1ccc(N2CCNCC2)cc1" , give its reported AUC.
Solution: 8190

---

# IC50 measurements, system: UniProtKB Q13547

Can you give me IC50 for all of these, one by one?
1. Nc1ccc(-c2cccs2)cc1NC(=O)c1cnc(N2CCNCC2)o1
2. Nc1ccc(-c2ccccc2)cc1NC(=O)c1ccc(N2CCNCC2)s1
3. Cc1nc(C(=O)Nc2cc(-c3cccs3)ccc2N)sc1N1CCNCC1
4. Nc1ccc(-c2ccoc2)cc1NC(=O)c1cnc(N2CCNCC2)cn1

Solution:
1: > 500 nM; 2: < 10 nM; 3: < 10 nM; 4: < 10 nM

---

# measured on: HDAC1 (Homo sapiens (Human), UniProt Q13547)
# Sequence (Q13547 whole entry): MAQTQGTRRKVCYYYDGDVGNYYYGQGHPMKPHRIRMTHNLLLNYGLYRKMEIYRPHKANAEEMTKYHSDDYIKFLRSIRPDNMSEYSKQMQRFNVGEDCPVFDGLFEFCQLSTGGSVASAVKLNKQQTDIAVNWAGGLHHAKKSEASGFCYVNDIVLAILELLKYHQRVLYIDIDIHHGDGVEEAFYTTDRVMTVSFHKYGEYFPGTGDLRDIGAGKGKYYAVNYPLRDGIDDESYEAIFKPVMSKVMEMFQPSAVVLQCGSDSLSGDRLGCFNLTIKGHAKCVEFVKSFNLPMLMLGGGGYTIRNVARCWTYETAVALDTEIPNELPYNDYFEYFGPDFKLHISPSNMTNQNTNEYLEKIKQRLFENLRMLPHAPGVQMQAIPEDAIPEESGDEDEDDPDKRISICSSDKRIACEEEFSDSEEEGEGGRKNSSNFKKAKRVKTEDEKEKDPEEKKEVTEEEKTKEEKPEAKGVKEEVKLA
pIC50: −log10 of the molar value.
outcome measure: pIC50

Consider the following illustrative entries.
Nc1ccc(-c2cccs2)cc1NC(=O)c1cnc(N2CCNCC2)cn1: > 8.00
Nc1ccc(-c2cccnc2)cc1NC(=O)c1ccc(N2CCNCC2)nc1: 6.30 to 8.00
Nc1ccc(-c2ccc(F)cc2)cc1NC(=O)c1cnc(N2CCNCC2)cn1: > 8.00
Nc1ccc(-c2cc(F)cc(F)c2)cc1NC(=O)c1ccc(N2CCNCC2)cn1: < 6.30
Nc1ccc(-c2ccc(F)cc2)cc1NC(=O)c1ccc(N2CCNCC2)nc1: > 8.00

Can you give me pIC50 for all of these, one by one?
1. CN1CCN(c2ccc(C(=O)Nc3cc(-c4ccccc4)ccc3N)nc2)CC1
2. Cc1nc(C(=O)Nc2cc(-c3ccoc3)ccc2N)sc1N1CCNCC1
3. Nc1ccc(-c2ccccc2)cc1NC(=O)c1cnc(N2CCNCC2)o1
4. Nc1ccc(-c2ccccc2)cc1NC(=O)c1cc(N2CCNCC2)cs1

Solution:
["> 8.00", "> 8.00", "< 6.30", "6.30 to 8.00"]

---

# protocol details: Rat pharmacokinetics, cassette dosing (IV and PO)
# Assay type: in vivo
# reported conditions: rat; male SD rats, PO 5 mg/kg, plasma
Threshold rule: Cmax greater than or equal to 800 ng/mL is label 1; below that, label 0.

Completed entries (count: 2):
Nc1ccc(-c2ccco2)cc1NC(=O)c1ccc(N2CCNCC2)nc1: label 0
Nc1ccc(-c2cccs2)cc1NC(=O)c1cnc(N2CCNCC2)cn1: label 0

Could you now consider this next molecule?
Exercise: Kindly determine if Cmax recorded for "Nc1ccc(-c2ccccc2)cc1NC(=O)c1ccc2nc(N3CCNCC3)ccc2c1" is above or exactly 800 ng/mL.
Solution: label 1

---

# measured on: hERG (Homo sapiens (Human), UniProt Q12809)
# Sequence (Q12809 whole entry): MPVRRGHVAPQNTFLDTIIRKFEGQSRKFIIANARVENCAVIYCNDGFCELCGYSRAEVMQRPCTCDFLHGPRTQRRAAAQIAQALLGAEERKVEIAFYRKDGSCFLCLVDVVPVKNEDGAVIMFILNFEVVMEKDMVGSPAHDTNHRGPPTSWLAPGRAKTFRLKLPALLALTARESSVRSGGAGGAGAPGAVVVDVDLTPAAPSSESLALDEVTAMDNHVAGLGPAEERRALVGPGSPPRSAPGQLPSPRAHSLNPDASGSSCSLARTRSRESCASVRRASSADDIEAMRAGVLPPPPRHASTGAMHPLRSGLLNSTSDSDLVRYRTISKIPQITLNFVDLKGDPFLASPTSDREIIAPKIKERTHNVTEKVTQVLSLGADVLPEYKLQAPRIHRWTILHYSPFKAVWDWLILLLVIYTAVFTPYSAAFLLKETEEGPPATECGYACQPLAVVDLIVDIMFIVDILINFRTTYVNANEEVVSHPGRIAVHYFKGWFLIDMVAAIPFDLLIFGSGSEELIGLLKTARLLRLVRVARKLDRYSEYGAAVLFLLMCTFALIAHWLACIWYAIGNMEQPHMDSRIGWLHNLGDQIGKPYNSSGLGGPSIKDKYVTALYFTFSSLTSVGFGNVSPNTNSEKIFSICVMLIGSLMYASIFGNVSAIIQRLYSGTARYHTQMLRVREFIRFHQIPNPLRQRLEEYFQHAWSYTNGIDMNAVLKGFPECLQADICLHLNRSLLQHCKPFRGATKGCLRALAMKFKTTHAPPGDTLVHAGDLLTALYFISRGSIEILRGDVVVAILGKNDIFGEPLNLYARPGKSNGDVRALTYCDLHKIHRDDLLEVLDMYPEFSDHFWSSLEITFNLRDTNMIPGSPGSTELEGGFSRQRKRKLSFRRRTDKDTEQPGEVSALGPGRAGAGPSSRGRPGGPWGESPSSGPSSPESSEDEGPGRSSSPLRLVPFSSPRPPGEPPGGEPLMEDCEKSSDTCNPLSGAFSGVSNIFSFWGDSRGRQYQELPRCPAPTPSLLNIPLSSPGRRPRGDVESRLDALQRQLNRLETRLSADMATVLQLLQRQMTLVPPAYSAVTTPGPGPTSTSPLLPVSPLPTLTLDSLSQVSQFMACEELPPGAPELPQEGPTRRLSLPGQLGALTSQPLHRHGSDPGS
# protocol details: hERG inhibition, whole-cell patch clamp
# Format: cell-based
# reported conditions: HEK293 cells stably transfected with hERG, 34 °C, tail current
With a cut-off of 5 µM, any IC50 strictly below it is called Condition met; any IC50 meeting it or above is called Condition not met.

Completed entries (count: 5):
CN1CCN(c2ccc3cc(C(=O)Nc4cc(-c5ccco5)ccc4N)ncc3c2)CC1 [Compound 029]: Condition not met
Nc1ccc(-c2ccncc2)cc1NC(=O)c1cnc2cc(N3CCNCC3)ccc2c1 [Compound 026]: Condition not met
Nc1ccccc1NC(=O)c1cc2ccc(N3CCNCC3)cc2cn1 [Compound 021]: Condition met
Nc1ccccc1NC(=O)c1ccc2nc(N3CCNCC3)ccc2c1 [Compound 001]: Condition not met
Nc1ccc(-c2ccco2)cc1NC(=O)c1ccc2nc(N3CCNCC3)ccc2c1 [Compound 003]: Condition not met

Exercise: Confirm or reject: IC50 of Nc1ccc(-c2ccncc2)cc1NC(=O)c1cnc(N2CCNCC2)s1 [Compound 032] lies strictly below 5 µM
Solution: Condition not met

Exercise: Confirm or reject: IC50 of Cc1nc(N2CCNCC2)sc1C(=O)Nc1cc(-c2cccs2)ccc1N [Compound 031] lies strictly below 5 µM
Solution: Condition not met

Exercise: Confirm or reject: IC50 of CN1CCN(c2ccc(C(=O)Nc3cc(-c4ccncc4)ccc3N)cn2)CC1 [Compound 027] lies strictly below 5 µM
Solution: Condition not met

---

# measured on: UniProtKB O15379
# Sequence (O15379 whole entry): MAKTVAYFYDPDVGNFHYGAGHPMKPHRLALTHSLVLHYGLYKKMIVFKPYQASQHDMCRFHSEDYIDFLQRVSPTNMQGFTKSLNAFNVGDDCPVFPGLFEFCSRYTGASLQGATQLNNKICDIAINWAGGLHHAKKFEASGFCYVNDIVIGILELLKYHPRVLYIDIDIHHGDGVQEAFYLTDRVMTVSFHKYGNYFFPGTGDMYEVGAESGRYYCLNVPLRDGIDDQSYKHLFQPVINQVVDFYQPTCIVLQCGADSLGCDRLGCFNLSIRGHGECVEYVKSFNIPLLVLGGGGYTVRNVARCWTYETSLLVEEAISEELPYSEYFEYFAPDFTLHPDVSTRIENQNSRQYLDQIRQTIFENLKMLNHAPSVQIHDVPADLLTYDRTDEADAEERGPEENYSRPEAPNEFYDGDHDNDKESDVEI
# Sequence (Q9Y618 395-489 partner): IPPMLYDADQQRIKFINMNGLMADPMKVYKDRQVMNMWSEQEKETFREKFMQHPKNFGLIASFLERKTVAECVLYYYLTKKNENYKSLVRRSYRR
pIC50: −log10 of the molar value.
For each record, write down the corresponding pIC50.

Nc1ccc(-c2ccccc2)cc1NC(=O)c1cnc(N2CCNCC2)o1 [Compound 062]: < 6.30
Nc1ccc(-c2ccccc2)cc1NC(=O)c1ncc(N2CCNCC2)s1 [Compound 049]: 6.30 to 8.00
Nc1ccc(-c2ccco2)cc1NC(=O)c1cnc(N2CCNCC2)cn1 [Compound 087]: 6.30 to 8.00
Nc1ccc(-c2cccc(F)c2)cc1NC(=O)c1ccc(N2CCNCC2)nc1 [Compound 077]: 6.30 to 8.00
Nc1ccc(-c2ccc(F)cc2)cc1NC(=O)c1ccc(N2CCNCC2)nc1 [Compound 036]: 6.30 to 8.00
CN1CCN(c2ccc(C(=O)Nc3cc(-c4ccccc4)ccc3N)nc2)CC1 [Compound 079]: 6.30 to 8.00

Can you give me pIC50 for all of these, one by one?
1. Nc1ccc(-c2ccc(F)cc2)cc1NC(=O)c1nc(N2CCNCC2)cs1 [Compound 058]
2. Nc1ccc(-c2ccccc2)cc1NC(=O)c1cnc(N2CCNCC2)cn1 [Compound 085]

Solution:
["6.30 to 8.00", "6.30 to 8.00"]

Can you give me pIC50 for all of these, one by one?
1. Nc1ccc(-c2ccc(F)cc2)cc1NC(=O)c1cnc(N2CCNCC2)o1 [Compound 063]
2. Cc1nc(C(=O)Nc2cc(-c3ccoc3)ccc2N)sc1N1CCNCC1 [Compound 043]
3. Nc1ccc(-c2cccs2)cc1NC(=O)c1csc(N2CCNCC2)n1 [Compound 059]

Solution:
1: < 6.30; 2: < 6.30; 3: 6.30 to 8.00

Can you give me pIC50 for all of these, one by one?
1. Nc1ccc(-c2ccco2)cc1NC(=O)c1nc(N2CCNCC2)cs1 [Compound 055]
2. Nc1ccc(-c2ccc(F)cc2)cc1NC(=O)c1cnc(N2CCNCC2)cn1 [Compound 090]
3. Nc1ccc(-c2ccc(F)cc2)cc1NC(=O)c1ccc(N2CCNCC2)cn1 [Compound 038]
4. Cc1nc(C(=O)Nc2cc(-c3cccs3)ccc2N)sc1N1CCNCC1 [Compound 041]
5. Nc1ccc(-c2ccncc2)cc1NC(=O)c1ncc(N2CCNCC2)s1 [Compound 052]
6. CN1CCN(c2ccc(C(=O)Nc3cc(-c4ccco4)ccc3N)nc2)CC1 [Compound 082]
7. Nc1ccc(-c2ccoc2)cc1NC(=O)c1ccc(N2CCNCC2)s1 [Compound 066]

Solution:
< 6.30
6.30 to 8.00
6.30 to 8.00
6.30 to 8.00
6.30 to 8.00
6.30 to 8.00
6.30 to 8.00

---

# protocol details: Rat pharmacokinetics, cassette dosing (IV and PO)
# Type: in vivo
# reported conditions: rat; male SD rats, PO 5 mg/kg, plasma; read-out: PO T½ (converted)
Definition: the class of an entry is the range in lower bin: < 5 h; middle bin: ≥ 5 h and < 8 h; upper bin: ≥ 8 h that contains its half-life.

Completed entries (count: 5):
Nc1ccc(-c2ccoc2)cc1NC(=O)c1ccc2nc(N3CCNCC3)ccc2c1: lower bin
Nc1ccc(-c2cccs2)cc1NC(=O)c1cnc2cc(N3CCNCC3)ccc2c1: upper bin
Nc1ccc(-c2ccc(F)cc2)cc1NC(=O)c1ccc2nc(N3CCNCC3)ccc2c1: lower bin
Nc1ccc(-c2cccs2)cc1NC(=O)c1ccc(N2CCNCC2)cc1: middle bin
Nc1ccc(-c2ccccc2)cc1NC(=O)c1cc2ccc(N3CCNCC3)cc2cn1: upper bin

Exercise: Could you place "Nc1ccc(-c2cccs2)cc1NC(=O)c1ccc(N2CCNCC2)s1" in its proper category? Many thanks.
Solution: upper bin

Exercise: Could you place "CN1CCN(c2ccc(C(=O)Nc3cc(-c4ccncc4)ccc3N)cn2)CC1" in its proper category? Many thanks.
Solution: lower bin

Exercise: Could you place "Nc1ccc(-c2ccccc2)cc1NC(=O)c1ccc2nc(N3CCNCC3)ccc2c1" in its proper category? Many thanks.
Solution: middle bin

Exercise: Could you place "Nc1ccc(-c2cccs2)cc1NC(=O)c1cnc(N2CCNCC2)cn1" in its proper category? Many thanks.
Solution: upper bin

Exercise: Could you place "Nc1ccc(-c2ccc(F)cc2)cc1NC(=O)c1ccc(N2CCNCC2)nc1" in its proper category? Many thanks.
Solution: middle bin
